Values compiled from patent US20160235727A1.

Molecular target: human β3-AR (Homo sapiens)
Construct: expressed in transfected cells; host or cells: CHO (Chinese hamster ovary) cells, stably transfected
Sequence (P13945 whole entry): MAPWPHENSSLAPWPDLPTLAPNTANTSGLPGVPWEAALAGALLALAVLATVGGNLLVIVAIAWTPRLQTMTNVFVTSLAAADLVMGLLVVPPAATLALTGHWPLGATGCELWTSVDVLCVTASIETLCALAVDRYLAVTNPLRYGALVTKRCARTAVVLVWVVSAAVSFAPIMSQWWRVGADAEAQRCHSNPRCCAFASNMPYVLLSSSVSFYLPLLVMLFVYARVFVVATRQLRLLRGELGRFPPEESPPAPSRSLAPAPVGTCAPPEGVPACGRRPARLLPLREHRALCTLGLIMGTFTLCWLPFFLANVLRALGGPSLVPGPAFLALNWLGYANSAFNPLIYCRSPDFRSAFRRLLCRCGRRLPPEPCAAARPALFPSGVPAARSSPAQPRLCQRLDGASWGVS
Assay: cAMP functional agonist assay (LANCE TR-FRET) in CHO cells expressing cloned human β3-AR
Format: cell-based
Conditions: percent maximum activation relative to isoproterenol
MEASURED_QUANTITY: Human β3-AR Agonist Activity (%)
Number first, unit second.

The molecule CN(Cc1cccnc1)C(=O)c1ccc(C[C@@H]2CC[C@H]([C@H](O)c3ccc(F)cc3)N2)cc1 on human β3-AR (Homo sapiens): Human β3-AR Agonist Activity (%) was 94%

The molecule CC(c1cccnc1)N(C)C(=O)c1ccc(C[C@@H]2CC[C@H]([C@H](O)c3ccc(Cl)nc3)N2)cc1 (some centres unmarked) on human β3-AR (Homo sapiens): Human β3-AR Agonist Activity (%) was 96%

The molecule CN(Cc1cnccn1)C(=O)c1ccc(C[C@@H]2CC[C@H]([C@H](O)c3ccc(Cl)cc3)N2)cc1 on human β3-AR (Homo sapiens): Human β3-AR Agonist Activity (%) was 100%

The molecule CC(C)c1cc(CN(C)C(=O)c2ccc(C[C@@H]3CC[C@H]([C@H](O)c4ccccc4)N3)cc2)n[nH]1 on human β3-AR (Homo sapiens): Human β3-AR Agonist Activity (%) was 110%

The molecule COc1ncccc1CN(C)C(=O)c1ccc(C[C@@H]2CC[C@H]([C@H](O)c3ccc(Cl)nc3)N2)cc1 on human β3-AR (Homo sapiens): Human β3-AR Agonist Activity (%) was 98%

The molecule Cc1cc([C@@H](O)[C@H]2CC[C@@H](Cc3ccc(C(=O)N(C)Cc4cnccn4)cc3)N2)cnc1Cl on human β3-AR (Homo sapiens): Human β3-AR Agonist Activity (%) was 60%

The molecule C[C@H](c1nn(C)c(=O)o1)N(C)C(=O)c1ccc(C[C@@H]2CC[C@H]([C@H](O)c3ccccc3)N2)cc1 on human β3-AR (Homo sapiens): Human β3-AR Agonist Activity (%) was 105%

The molecule CN(Cc1cc(C(F)(F)F)[nH]n1)C(=O)c1ccc(C[C@@H]2CC[C@H]([C@H](O)c3ccc(Cl)nc3)N2)cc1 on human β3-AR (Homo sapiens): Human β3-AR Agonist Activity (%) was 96%

The molecule COC(C)CN(C)C(=O)c1ccc(C[C@@H]2CC[C@H]([C@H](O)c3ccc(Cl)nc3)N2)cc1 (some centres unmarked) on human β3-AR (Homo sapiens): Human β3-AR Agonist Activity (%) was 86%

The molecule CN(Cc1cncc(F)c1)C(=O)c1ccc(C[C@@H]2CC[C@H]([C@H](O)c3ccc(Cl)nc3)N2)cc1 on human β3-AR (Homo sapiens): Human β3-AR Agonist Activity (%) was 58%

The molecule CCc1[nH]nc(CN(C)C(=O)c2ccc(C[C@@H]3CC[C@H]([C@H](O)c4ccc(Cl)nc4)N3)cc2)c1C on human β3-AR (Homo sapiens): Human β3-AR Agonist Activity (%) was 95%

The molecule Cc1cc(CN(C)C(=O)c2ccc(C[C@@H]3CC[C@H]([C@H](O)c4ccccc4)N3)cc2)cnc1F on human β3-AR (Homo sapiens): Human β3-AR Agonist Activity (%) was 104%

The molecule C[C@H](c1nn(C)c(=O)o1)N(C)C(=O)c1ccc(C[C@@H]2CC[C@H]([C@H](O)c3ccc(Cl)cc3)N2)cc1 on human β3-AR (Homo sapiens): Human β3-AR Agonist Activity (%) was 101%

The molecule CN(C(=O)c1ccc(C[C@@H]2CC[C@H]([C@H](O)c3ccc(Cl)nc3)N2)cc1)C1CCc2ncccc21 (some centres unmarked) on human β3-AR (Homo sapiens): Human β3-AR Agonist Activity (%) was 98%

The molecule Cc1cc([C@@H](O)[C@H]2CC[C@@H](Cc3ccc(C(=O)N(C)Cc4cccnc4)cc3)N2)cnc1Cl on human β3-AR (Homo sapiens): Human β3-AR Agonist Activity (%) was 84%

The molecule CN(Cc1cncc(-c2nn[nH]n2)c1)C(=O)c1ccc(C[C@@H]2CC[C@H]([C@H](O)c3ccccc3)N2)cc1 on human β3-AR (Homo sapiens): Human β3-AR Agonist Activity (%) was 101%

The molecule CN(Cc1cc(C(F)(F)F)[nH]n1)C(=O)c1ccc(C[C@@H]2CC[C@H]([C@H](O)c3ccccc3)N2)cc1 on human β3-AR (Homo sapiens): Human β3-AR Agonist Activity (%) was 110%

The molecule CN(Cc1ccc(=O)[nH]c1)C(=O)c1ccc(C[C@@H]2CC[C@H]([C@H](O)c3cccc(F)c3)N2)cc1 on human β3-AR (Homo sapiens): Human β3-AR Agonist Activity (%) was 78%

The molecule COC(=O)c1cncc(CN(C)C(=O)c2ccc(C[C@@H]3CC[C@H]([C@H](O)c4ccc(Cl)cc4)N3)cc2)c1 on human β3-AR (Homo sapiens): Human β3-AR Agonist Activity (%) was 90%

The molecule Cc1cc(CN(C)C(=O)c2ccc(C[C@@H]3CC[C@H]([C@H](O)c4ccc(Cl)nc4)N3)cc2)n[nH]1 on human β3-AR (Homo sapiens): Human β3-AR Agonist Activity (%) was 104%

The molecule Cc1cc(C(Cc2ccccc2)N(C)C(=O)c2ccc(C[C@@H]3CC[C@H]([C@H](O)c4ccc(Cl)nc4)N3)cc2)[nH]n1 (some centres unmarked) on human β3-AR (Homo sapiens): Human β3-AR Agonist Activity (%) was 93%

The molecule CC(c1cnccn1)N(C)C(=O)c1ccc(C[C@@H]2CC[C@H]([C@H](O)c3ccc(Cl)nc3)N2)cc1 (some centres unmarked) on human β3-AR (Homo sapiens): Human β3-AR Agonist Activity (%) was 98%

The molecule CN(Cc1ccc(=O)[nH]c1)C(=O)c1ccc(C[C@@H]2CC[C@H]([C@H](O)c3ccc(F)cc3)N2)cc1 on human β3-AR (Homo sapiens): Human β3-AR Agonist Activity (%) was 88%
